# composite z-score listing for each entry below
- methodNotes: small-molecule microarray binders of probe aLefty2, primary screen, biochemical, biotinylated probe, 635/667 nm fluorescence (AID 1094);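 also: score merges spot fluorescence near 667 nm with spot signal-to-noise ratio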
- setupConditions: higher = more signal

These solved cases illustrate the format of a correct answer.
# compound, reported
data = [
    ("CCN1C(C)=C(C(=O)OC)[C@@H](c2ccccc2)N2C(=O)[C@@]3(C(=O)OC)O[C@@]12[C@@H]1C(=O)N(C)C(=O)[C@@H]13", -0.122),
    ("O=C1OCCC=C[C@H]2OC34C=CCN(Cc5ccccc5)C(=O)[C@H]3N(CCO)C(=O)[C@@H]4C12 (stereo partly drawn)", -0.172),
    ("CC(=O)Nc1ccc([C@H]2[C@H](C)CC[C@H]3C(=O)N4[C@@H](CC[C@@H](C)[C@@H]4c4ccc(NC(C)=O)cc4)C(=O)N32)cc1", -0.185),
    ("CC(C)[Si]1(C(C)C)OCc2cc(C3CC3)nc(-c3ccccc3)c21", -0.142),
    ("CCCC[C@@H]1C[C@H]1[C@@H](NC(=O)c1ccccc1)c1ccccc1C(F)(F)F", 0.198),
    ("CC(C)[Si]1(C(C)C)O[C@@H](c2ccccc2)c2cc(C3CC3)nc(-c3ccc(Oc4ccccc4)cc3)c21", -0.142),
    ("COc1cc2c(cc1OC)CN(C(=O)[C@H]1[C@@H]3C(=O)O[C@@H](c4ccccc4)[C@@H](c4ccccc4)N3[C@@H](c3ccc(O)cc3)[C@]13C(=O)Nc1ccc(C#CC4(O)CCCCCC4)cc13)CC2", 0.675),
    ("C=C(C(=O)CC[C@H](OC(=O)c1ccccc1-c1ccccc1C(=O)O)c1ccc(CO)o1)C(C)C", -0.19),
]

Ask | Entry O=C1C2C=CC(C(O)Cc3ccccc3)N(Nc3ccc([N+](=O)[O-])cc3)C2C(=O)N1c1ccccc1 (stereo not drawn) : reported composite z-score = ?
Reply | 0.232

Ask | composite z-score lookup needed for CCC1=C2CN(Cc3ccccc3Br)[C@@H]([C@@H](O)Cc3ccccc3)C2C=CCC1 (stereo partly drawn) , thanks.
Reply | -0.125

Ask | Can you share its composite z-score? I mean this compound: CO[C@]12C=C(Br)[C@@H](C[C@@H]1c1ccccc1)[C@@]1(CO1)C2=O
Reply | -0.2

Ask | What measured composite z-score goes with Cc1ccc(S[C@]2(C(=O)NC(C)C)CC(=O)N(C3Cc4ccccc4C3)[C@@H]2c2ccc(CO)cc2)cc1 ?
Reply | -0.222

Ask | composite z-score for CCCC=C(CCC)[C@@H](NS(=O)(=O)c1cccc(C(F)(F)F)c1)c1ccc(C(=O)OC)cc1 ?
Reply | 1.06

----------
- methodNotes: small-molecule binders of probe aInhba, primary screen, biochemical, small-molecule microarray, 635/667 nm fluorescence (AID 1148);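 also: score merges 667nm spot fluorescence with signal-to-noise for antibody binding to printed compounds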
- setupConditions: higher = more signal
Below: a set of entries, each annotated with reported composite z-score.
Just the number, please, no unit attached.

Ask | Give its composite z-score value. Item: COCCOC(=O)N1C(=O)[C@@]2(c3cc(C#CCNC(N)=O)ccc31)[C@H](c1ccc(OCCO)cc1)N1[C@H](c3ccccc3)[C@H](c3ccccc3)OC(=O)[C@H]1[C@@H]2C(=O)Nc1nc2ccccc2s1
Reply | -0.224

Ask | Quick one: composite z-score for CC(c1ccccc1)C(O)C1C=CC2C(=O)N(C)C(=O)C2N1N(c1ccccc1)c1ccccc1 (configuration not stated) ?
Reply | 0.153

Ask | Bench note: what composite z-score did CCN1C(C)=C(C(=O)OC)[C@@H](c2ccccc2)N2C(=O)[C@](O)(C(=O)OC)[C@@H](c3ccccc3)C(C(=O)c3ccccc3)=C12 show?
Reply | -0.0552

Ask | Given the compound C[C@@H]1NC(=O)[C@H](Cc2ccccc2)NC(=O)[C@@]23C(=O)N[C@@H](Cc4ccccc4)C2[C@H](C)[C@@]2(C)O[C@H]2C3/C=C/C/C=C\CNC1=O (some centres not stated) , what is its reported composite z-score?
Reply | -0.128

Ask | Can you share its composite z-score? I mean this compound: CC(=O)Nc1ccc([C@H]2[C@H](C)CC[C@H]3C(=O)N4[C@@H](CC[C@@H](C)[C@@H]4c4ccc(NC(C)=O)cc4)C(=O)N32)cc1
Reply | 0.0275

Ask | Sample COCCOC(=O)N1C(=O)[C@@]2(c3cc(C#CCCO)ccc31)[C@H](c1ccc(O)cc1)N1[C@H](c3ccccc3)[C@H](c3ccccc3)OC(=O)[C@H]1[C@@H]2C(=O)Nc1nc2ccccc2s1 — what was its composite z-score?
Reply | -0.0062

Ask | # composite z-score lookup, item CC(C)N1CC=CC23O[C@@H]4/C=C\CCCOC(=O)C4[C@H]2C(=O)N(CCCCCO)[C@@H]3C1=O (some centres not stated)
Reply | -0.244

Ask | # query: composite z-score of entry CO[C@H]1COC(=O)[C@H](C)COC(=O)[C@H](Cc2ccccc2)NC(=O)CC=C[C@H]1C
Reply | 0.286

Ask | Requested field: composite z-score. Item: CCOC(=O)C1=CC[C@@H](c2ccccc2)N(S(=O)(=O)c2ccc(C)cc2)[C@H]1C
Reply | -0.153
